Each recorded value in this set is attributed to patent US20060019268A1.

- Tested on: KFr13 cells
- assay-info: Colony formation (clonogenic) assay, cisplatin sensitivity
- Assay type: cell-based, human
- condition-description: resistant KFr13 cells; colony formation; continuous drug exposure
measured-quantity: IC50 (nM)
Express your answer in nM, writing the number without its unit.

Exercise: Could you share which IC50 value was measured for N.N.[Cl][Pt][Cl] [Cisplatin, cis-diamminedichloroplatinum] ?
Key: 400

---

- Tested on: HEY cells
- assay-info: Colony formation (clonogenic) assay, cisplatin sensitivity
- Format: cell-based, human
- condition-description: parental HEY cells, continuous drug exposure
- Experimental: Cells and culture. Six human ovarian carcinoma cell lines (2008, A2780, HEY, IGROV-1, KF28 and UCI 107) were used in this study. […] The degree of resistance of each subline was determined at the time RNA was harvested using a clonogenic assay with continuous drug exposure as previously described (Mishima et al., 2002). […]
measured-quantity: pIC50
pIC50 field: float, defined as -log10 of concentration (mol/L).

Exercise: Could you share which pIC50 value was measured for N.N.[Cl][Pt][Cl] [Cisplatin, cis-diamminedichloroplatinum] ?
Key: 6.12

---

- Tested on: 2008/C13*5.25 cells
- assay-info: Colony formation (clonogenic) assay, cisplatin sensitivity
- Type: cell-based, human
- condition-description: resistant 2008/C13*5.25 cells; colony formation; continuous drug exposure
measured-quantity: IC50

Exercise: Could you share which IC50 value was measured for N.N.[Cl][Pt][Cl] [Cisplatin, cis-diamminedichloroplatinum] ?
Key: 1100 nM

---

- Tested on: UCI 107 cells
- assay-info: Colony formation (clonogenic) assay, cisplatin sensitivity
- Type: cell-based, human
- condition-description: parental UCI 107 cells, continuous drug exposure
measured-quantity: IC50 (nM)
Express your answer in nM, writing the number without its unit.

Exercise: Could you share which IC50 value was measured for N.N.[Cl][Pt][Cl] [Cisplatin, cis-diamminedichloroplatinum] ?
Key: 1000

---

- System: 2008 cells
- assay-info: Colony formation (clonogenic) assay, cisplatin sensitivity
- Assay type: cell-based, human
- condition-description: parental 2008 cells, continuous drug exposure
measured-quantity: IC50 (nM)
Express your answer in nM, writing the number without its unit.

Exercise: Could you share which IC50 value was measured for N.N.[Cl][Pt][Cl] [Cisplatin, cis-diamminedichloroplatinum] ?
Key: 700
